// provenance: paper PMC4786998

test: Plasma pharmacokinetics in phase I patients; type: in vivo, human; conditions: human, plasma, oral, 800 mg, cycle 1, day 28; 800 mg once daily; dose-escalation cohort; n = 1; read-out: AUC24
measured.property: AUC (ng·h/mL)
Report the figure in ng·h/mL without appending any unit label.

Reported AUC of COc1cc(N2CCC(N3CCN(C)CC3)CC2)ccc1Nc1ncnc(Nc2ccccc2S(=O)(=O)C(C)C)n1 [ASP3026] : 78100

* * *

assay: Plasma pharmacokinetics in phase I patients; assay type: in vivo, human; conditions: human, plasma, oral, 50 mg, cycle 1, day 28; 50 mg once daily; dose-escalation cohort; n = 3; mean (standard deviation); calculated from accumulation ratio; read-out: t ½ (converted)
measured.property: half-life (h)
Report the figure in h without appending any unit label.

Reported half-life of COc1cc(N2CCC(N3CCN(C)CC3)CC2)ccc1Nc1ncnc(Nc2ccccc2S(=O)(=O)C(C)C)n1 [ASP3026] : 35.2

* * *

assay: Plasma pharmacokinetics in phase I patients; format: in vivo, human; conditions: human, plasma, oral, 25 mg, cycle 1, day 1; 25 mg once daily; dose-escalation cohort; n = 4; median (range); read-out: t max
measured.property: Tmax (h)
Report the figure in h without appending any unit label.

Reported Tmax of COc1cc(N2CCC(N3CCN(C)CC3)CC2)ccc1Nc1ncnc(Nc2ccccc2S(=O)(=O)C(C)C)n1 [ASP3026] : 3

* * *

assay: Plasma pharmacokinetics in phase I patients; format: in vivo, human; conditions: human, plasma, oral, 75 mg, cycle 1, day 28; 75 mg once daily; dose-escalation cohort; n = 3; mean (standard deviation); read-out: AUC24
measured.property: AUC (ng·h/mL)
Report the figure in ng·h/mL without appending any unit label.

Reported AUC of "COc1cc(N2CCC(N3CCN(C)CC3)CC2)ccc1Nc1ncnc(Nc2ccccc2S(=O)(=O)C(C)C)n1" : 5630

* * *

assay: Plasma pharmacokinetics in phase I patients; type: in vivo, human; conditions: human, plasma, oral, 75 mg, cycle 1, day 1; 75 mg once daily; dose-escalation cohort; n = 3; median (range); read-out: t max
measured.property: Tmax

Reported Tmax of COc1cc(N2CCC(N3CCN(C)CC3)CC2)ccc1Nc1ncnc(Nc2ccccc2S(=O)(=O)C(C)C)n1 [ASP3026] : 8.2 h

* * *

assay: Plasma pharmacokinetics in phase I patients; format: in vivo, human; conditions: human, plasma, oral, 325 mg, cycle 1, day 1; 325 mg once daily; dose-escalation cohort; n = 3; median (range); read-out: t max
measured.property: Tmax (h)
Report the figure in h without appending any unit label.

Reported Tmax of "COc1cc(N2CCC(N3CCN(C)CC3)CC2)ccc1Nc1ncnc(Nc2ccccc2S(=O)(=O)C(C)C)n1" : 3

* * *

experiment: Plasma pharmacokinetics in phase I patients; format: in vivo, human; conditions: human, plasma, oral, 200 mg once daily, cycle 1, day 28; 200 mg once daily; dose-escalation cohort; n = 3; median (range); read-out: t max
measured.property: Tmax (h)
Report the figure in h without appending any unit label.

Reported Tmax of COc1cc(N2CCC(N3CCN(C)CC3)CC2)ccc1Nc1ncnc(Nc2ccccc2S(=O)(=O)C(C)C)n1 [ASP3026] : 3

* * *

assay: Plasma pharmacokinetics in phase I patients; assay type: in vivo, human; settings: human, plasma, oral, 200 mg, cycle 1, day 1; 200 mg once daily; dose-escalation cohort; n = 4; mean (standard deviation)
measured.property: Cmax (ng/mL)
Report the figure in ng/mL without appending any unit label.

Reported Cmax of "COc1cc(N2CCC(N3CCN(C)CC3)CC2)ccc1Nc1ncnc(Nc2ccccc2S(=O)(=O)C(C)C)n1" : 490
